Hello, the source for this data is paper PMC12881681, in case you need it.

# experiment: Pharmacokinetics study in mice: erlotinib pretreatment, carbazeran and 4-oxo-carbazeran
# Assay type: in vivo, BALB/c mice
# conditions: blood, carbazeran 10 mg/kg p.o., Control (vehicle pretreatment)
value-type: Cmax (nM)
// note: answer is a bare numeric in nM

Query: Give Cmax for the following compound: CCNC(=O)OC1CCN(c2n[nH]c(=O)c3cc(OC)c(OC)cc23)CC1 [4-Oxo-Carbazeran, 4-oxo-carbazeran]
Reply: 920

----------
# measured-target: human liver cytosolic AOX1 (Homo sapiens)
# experiment: Partition ratio determination (titration, human liver cytosol)
# Assay type: biochemical
# Parameters: Enzymatic reaction was initiated by adding human liver cytosol (100 μg); tissue Corning, Inc. (Gentest brand) 452115; host or cells: human liver cytosol, pool of 150 donors
# conditions: human liver cytosol
Listing: Turnover Number of selected molecules
Respond numerically, and do not add a unit to the figure.

In the examples that follow, each entry is paired with its recorded Turnover Number.
{"molecule": "C#Cc1cccc(Nc2ncnc3cc(OCCO)c(OCCO)cc23)c1 [O-Didesmethylerlotinib, O-didesmethylerlotinib]", "Turnover Number": 24.6}
{"molecule": "C#Cc1cc(Nc2ncnc3cc(OCCOC)c(OCCOC)cc23)ccc1C [4′-Methylerlotinib, 4′-methylerlotinib]", "Turnover Number": 42.9}
{"molecule": "C#Cc1cccc(Nc2ncnc3cc(OCCOC)c(OCCO)cc23)c1 [O-Desmethylerlotinib, O-desmethylerlotinib]", "Turnover Number": 35.2}
{"molecule": "C#Cc1cccc(Nc2nc(C)nc3cc(OCCOC)c(OCCOC)cc23)c1 [2-Methylerlotinib, 2-methylerlotinib]", "Turnover Number": 49.9}

Query: Give Turnover Number for the following molecule: C#Cc1cccc(Nc2ncnc3cc(OCCOC)c(OCCOC)cc23)c1 [Erlotinib]
Reply: 26.9

----------
# measured-target: human liver cytosolic AOX1 (Homo sapiens, UniProt Q06278)
# Sequence (Q06278 whole entry): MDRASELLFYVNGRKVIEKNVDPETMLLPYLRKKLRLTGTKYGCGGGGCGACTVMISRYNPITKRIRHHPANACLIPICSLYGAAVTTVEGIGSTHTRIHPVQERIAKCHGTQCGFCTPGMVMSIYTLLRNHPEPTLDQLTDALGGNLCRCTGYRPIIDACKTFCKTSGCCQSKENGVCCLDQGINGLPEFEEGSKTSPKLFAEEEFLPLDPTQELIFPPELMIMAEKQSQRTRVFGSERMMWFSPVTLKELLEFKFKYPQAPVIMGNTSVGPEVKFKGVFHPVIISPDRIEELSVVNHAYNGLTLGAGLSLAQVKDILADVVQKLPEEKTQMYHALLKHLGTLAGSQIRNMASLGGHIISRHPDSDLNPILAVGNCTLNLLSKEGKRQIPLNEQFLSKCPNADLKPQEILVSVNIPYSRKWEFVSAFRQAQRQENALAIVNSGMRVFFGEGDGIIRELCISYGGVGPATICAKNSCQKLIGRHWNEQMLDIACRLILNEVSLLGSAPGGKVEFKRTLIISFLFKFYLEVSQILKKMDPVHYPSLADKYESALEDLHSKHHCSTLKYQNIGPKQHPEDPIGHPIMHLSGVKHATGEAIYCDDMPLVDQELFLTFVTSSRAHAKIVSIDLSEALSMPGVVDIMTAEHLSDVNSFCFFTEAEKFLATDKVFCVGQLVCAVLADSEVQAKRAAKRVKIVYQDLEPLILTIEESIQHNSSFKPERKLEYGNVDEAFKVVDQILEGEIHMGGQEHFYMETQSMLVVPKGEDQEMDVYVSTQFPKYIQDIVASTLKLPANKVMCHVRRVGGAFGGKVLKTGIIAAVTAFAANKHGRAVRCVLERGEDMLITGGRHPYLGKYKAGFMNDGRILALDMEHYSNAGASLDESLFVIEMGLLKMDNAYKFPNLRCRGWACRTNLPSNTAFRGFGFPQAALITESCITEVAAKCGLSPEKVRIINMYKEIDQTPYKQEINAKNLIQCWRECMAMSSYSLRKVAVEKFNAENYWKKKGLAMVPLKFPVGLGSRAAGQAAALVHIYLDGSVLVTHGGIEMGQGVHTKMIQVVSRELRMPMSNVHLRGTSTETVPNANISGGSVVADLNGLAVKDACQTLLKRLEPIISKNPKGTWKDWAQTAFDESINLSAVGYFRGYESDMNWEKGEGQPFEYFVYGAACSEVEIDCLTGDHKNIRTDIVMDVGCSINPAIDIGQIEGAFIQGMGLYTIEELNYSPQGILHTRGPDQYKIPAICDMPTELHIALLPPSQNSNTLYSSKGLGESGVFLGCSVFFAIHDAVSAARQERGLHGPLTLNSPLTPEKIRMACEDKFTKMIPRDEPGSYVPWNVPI
# experiment: Enzyme inactivation of human liver cytosolic AOX1-mediated carbazeran 4-oxidation
# conditions: human liver cytosol, carbazeran 4-oxidation
value-type: kinact/KI

In the examples that follow, each entry is paired with its recorded kinact/KI.
{"molecule": "C#Cc1cccc(Nc2nc(C)nc3cc(OCCOC)c(OCCOC)cc23)c1 [2-Methylerlotinib, 2-methylerlotinib]", "measured-target": "human liver cytosolic AOX1 (Homo sapiens, UniProt Q06278)", "kinact/KI": "0.21 ± 0.01∗∗∗ min^–1μM^–1"}
{"molecule": "C#Cc1cccc(Nc2ncnc3cc(OCCO)c(OCCO)cc23)c1 [O-Didesmethylerlotinib, O-didesmethylerlotinib]", "measured-target": "human liver cytosolic AOX1 (Homo sapiens, UniProt Q06278)", "kinact/KI": "0.50 ± 0.03∗∗ min^–1μM^–1"}
{"molecule": "C#Cc1cc(Nc2ncnc3cc(OCCOC)c(OCCOC)cc23)ccc1C [4′-Methylerlotinib, 4′-methylerlotinib]", "measured-target": "human liver cytosolic AOX1 (Homo sapiens, UniProt Q06278)", "kinact/KI": "0.13 ± 0.02∗∗∗ min^–1μM^–1"}
{"molecule": "C#Cc1cccc(Nc2nc(=O)[nH]c3cc(OCCOC)c(OCCOC)cc23)c1 [2-Hydroxyerlotinib, 2-hydroxyerlotinib]", "measured-target": "human liver cytosolic AOX1 (Homo sapiens, UniProt Q06278)", "kinact/KI": "0.01 ± 0.00∗∗∗ min^–1μM^–1"}

Then there is this molecule:
Query: Give kinact/KI for the following molecule: C#Cc1cccc(Nc2ncnc3cc(OCCOC)c(OCCO)cc23)c1 [O-Desmethylerlotinib, O-desmethylerlotinib]
Reply: 0.21 ± 0.04∗∗∗ min^–1μM^–1

----------
# measured-target: human liver cytosolic AOX1 (Homo sapiens, UniProt Q06278)
# experiment: Effects of a competing AOX1 substrate and a competitive AOX1 inhibitor on AOX1 inactivation
# Assay type: biochemical
# Set-up: Enzymatic reaction was initiated by adding human liver cytosol (100 μg); tissue Corning, Inc. (Gentest brand) 452115; host or cells: human liver cytosol, pool of 150 donors
# conditions: gefitinib 3, 10, 30 μM, carbazeran 4-oxidation, human liver cytosol
value-type: effect of gefitinib on extent of AOX1 inactivation

{"line-notation": "C#Cc1cc(Nc2ncnc3cc(OCCOC)c(OCCOC)cc23)ccc1C", "measured-target": "human liver cytosolic AOX1 (Homo sapiens, UniProt Q06278)", "result": "attenuated"}
{"line-notation": "C#Cc1cccc(Nc2ncnc3cc(OCCO)c(OCCO)cc23)c1", "measured-target": "human liver cytosolic AOX1 (Homo sapiens, UniProt Q06278)", "result": "attenuated"}
{"line-notation": "C#Cc1cccc(Nc2ncnc3cc(OCCOC)c(OCCO)cc23)c1", "measured-target": "human liver cytosolic AOX1 (Homo sapiens, UniProt Q06278)", "result": "attenuated"}
{"line-notation": "C=Cc1cccc(Nc2ncnc3cc(OCCOC)c(OCCOC)cc23)c1", "measured-target": "human liver cytosolic AOX1 (Homo sapiens, UniProt Q06278)", "result": "attenuated"}

Query: State effect of gefitinib on extent of AOX1 inactivation on human liver cytosolic AOX1 (Homo sapiens, UniProt Q06278). Entry: C#Cc1cccc(Nc2nc(C)nc3cc(OCCOC)c(OCCOC)cc23)c1
Reply: attenuated

----------
# experiment: Pharmacokinetics study in mice: erlotinib pretreatment, carbazeran and 4-oxo-carbazeran
# Assay type: in vivo, BALB/c mice
# conditions: male, BALB/c, mouse, whole blood, po, 10 mg/kg, blood, carbazeran 10 mg/kg p.o., Control (vehicle pretreatment)
value-type: AUC(0-inf) (µM·h)
// note: answer is a bare numeric in µM·h

Query: Give AUC(0-inf) for the following compound: CCNC(=O)OC1CCN(c2nncc3cc(OC)c(OC)cc23)CC1
Reply: 2.52

----------
# measured-target: human liver cytosolic AOX1 (Homo sapiens)
# Assay type: biochemical
# Set-up: Enzymatic reaction was initiated by adding human liver cytosol (100 μg); tissue Corning, Inc. (Gentest brand) 452115; host or cells: human liver cytosol, pool of 150 donors
# conditions: potassium ferricyanide 2 mM, 0 or 6 min preincubation
value-type: effect of coincubation or postincubation with potassium ferricyanide on AOX1 inactivation

{"compound": "CCc1cccc(Nc2ncnc3cc(OCCOC)c(OCCOC)cc23)c1 [Tetrahydroerlotinib, tetrahydroerlotinib]", "measured-target": "human liver cytosolic AOX1 (Homo sapiens)", "result": "not changed"}
{"compound": "COc1cc2ncnc(Nc3ccc(F)c(Cl)c3)c2cc1OCCCN1CCOCC1", "measured-target": "human liver cytosolic AOX1 (Homo sapiens)", "result": "not changed"}

----------
# experiment: Pharmacokinetics study in mice: erlotinib pretreatment, carbazeran and 4-oxo-carbazeran
# Format: in vivo, BALB/c mice
# conditions: male, BALB/c, mouse, whole blood, po, 10 mg/kg, carbazeran 10 mg/kg p.o., Control (vehicle pretreatment); read-out: Apparent oral clearance (CL/F) (converted)
value-type: CL/F (mL/min/kg)
// note: answer is a bare numeric in mL/min/kg

Query: Give CL/F for the following molecule: CCNC(=O)OC1CCN(c2nncc3cc(OC)c(OC)cc23)CC1 [Carbazeran, carbazeran]
Reply: 188

----------
Listing: kinact of selected molecules
# measured-target: human liver cytosolic AOX1 (Homo sapiens)
# experiment: Enzyme inactivation of human liver cytosolic AOX1-mediated carbazeran 4-oxidation
# conditions: human liver cytosol 100 μg, carbazeran 15 μM, 37 °C
# Experimental: Carbazeran 4-oxidation and O^6-benzylguanine 8-oxidation were deployed as AOX1-selective catalytic markers.[27] The assay conditions (amount of cytosolic protein, incubation time, and substrate concentration) for carbazeran 4-oxidation catalyzed by human recombinant AOX1 and human/rat/mouse liver cytosols were optimized previously.[7]^,[25] Enzymatic reaction was initiated by adding human liver cytosol (100 μg). […]

In the examples that follow, each entry is paired with its recorded kinact.
{"molecule": "C#Cc1cc(Nc2ncnc3cc(OCCOC)c(OCCOC)cc23)ccc1C", "measured-target": "human liver cytosolic AOX1 (Homo sapiens)", "result": "0.14 ± 0.03∗∗∗ min^–1"}
{"molecule": "C=Cc1cccc(Nc2ncnc3cc(OCCOC)c(OCCOC)cc23)c1", "measured-target": "human liver cytosolic AOX1 (Homo sapiens)", "result": "0.33 ± 0.07∗∗∗ min^–1"}

Query: State kinact on human liver cytosolic AOX1 (Homo sapiens). Entry: C#Cc1cccc(Nc2ncnc3cc(OCCO)c(OCCO)cc23)c1
Reply: 1.00 ± 0.04 min^–1

----------
# measured-target: human liver cytosolic AOX1 (Homo sapiens, UniProt Q06278)
# experiment: Enzyme inactivation of human liver cytosolic AOX1-mediated carbazeran 4-oxidation
# conditions: human liver cytosol, carbazeran 4-oxidation
# Procedure: Carbazeran 4-oxidation and O^6-benzylguanine 8-oxidation were deployed as AOX1-selective catalytic markers.[27] The assay conditions (amount of cytosolic protein, incubation time, and substrate concentration) for carbazeran 4-oxidation catalyzed by human recombinant AOX1 and human/rat/mouse liver cytosols were optimized previously.[7]^,[25] Enzymatic reaction was initiated by adding human liver cytosol (100 μg). […]
Listing: Inactivation t1/2 of selected compounds
// note: answer is a bare numeric in min

{"line-notation": "C#Cc1cccc(Nc2ncnc3cc(OCCO)c(OCCO)cc23)c1", "value-unit": "min", "readout-number": 0.70}
{"line-notation": "C#Cc1cccc(Nc2nc(C)nc3cc(OCCOC)c(OCCOC)cc23)c1", "value-unit": "min", "readout-number": 0.83}
{"line-notation": "C#Cc1cccc(Nc2ncnc3cc(OCCOC)c(OCCO)cc23)c1", "value-unit": "min", "readout-number": 0.66}

Query: Give Inactivation t1/2 for the following compound: C#Cc1cccc(Nc2ncnc3cc(OCCOC)c(OCCOC)cc23)c1
Reply: 0.62
